# EXPERIMENTAL_TARGET: AgAbp1
# PROTOCOL: SPOT peptide array binding signal intensity (averaged, normalized) (arbitrary units (background-subtracted, floor 0; scale differs between SH3 domains)); higher = stronger binding of the SH3 domain to the peptide
MEASURED_QUANTITY: SPOT peptide array binding signal intensity

{"BINDER": "VPPPMQPPPIESSNL", "REPORTED_RESULT": "≤ 0"}
{"BINDER": "TPTSGPPLLPPRNTM", "REPORTED_RESULT": "≤ 0"}
{"BINDER": "PHNPSPFFPPPDFND", "REPORTED_RESULT": "≤ 0"}
